Data origin: patent US9382197B2

Each entry below carries its recorded pIC50.
Molecular target: purified human HDAC6 (Homo sapiens, UniProt Q9UBN7)
Construct: purchased BPS Bioscience 5006
Assay: HDAC6 Enzyme Assay
Format: biochemical
Conditions: purified human HDAC6, substrate Ac-Arg-Gly-Lys(Ac)-AMC, 1 hour at 30° C.; reported as bins
Protocol: To measure the inhibition of HDAC6 activity, purified human HDAC6 (BPS Bioscience; Cat. No. 5006) is incubated with substrate Ac-Arg-Gly-Lys(Ac)-AMC peptide (Bachem Biosciences; Cat. No. 1-1925) for 1 hour at 30° C. in the presence of test compounds or vehicle DMSO control. […] Concentration response curves are generated by calculating the fluorescence increase in test compound-treated samples relative to DMSO-treated controls, and enzyme inhibition (IC50) values are determined from those curves.
pIC50: −log10 of the molar value.

Examples with their reported pIC50 follow.
{"compound": "Cc1c(C(=O)N[C@@H](c2ccc(C(=O)NO)cc2)C(C)C)sc2ccccc12", "pIC50": "> 7.00"}
{"compound": "CC(C)C(NC(=O)c1nc2ccccc2s1)c1ccc(C(=O)NO)cc1 (stereo not drawn)", "pIC50": "> 7.00"}
{"compound": "CC(NC(=O)c1cccs1)c1cccc(C(=O)NO)c1 (stereo not drawn)", "pIC50": "6.30 to 7.00"}
{"compound": "CC(C)C(NC(=O)C1(c2ccccc2)CCCC1)c1ccc(C(=O)NO)cc1 (stereo not drawn)", "pIC50": "6.30 to 7.00"}
{"compound": "CC(NS(=O)(=O)c1ccc(F)cc1)c1ccc(C(=O)NO)cc1 (stereo not drawn)", "pIC50": "6.30 to 7.00"}
{"compound": "CC(NC(=O)c1ccc(-c2ccccc2)cc1)c1cccc(C(=O)NO)c1 (stereo not drawn)", "pIC50": "6.30 to 7.00"}
{"compound": "Cc1cccc(C)c1NC(=O)NC(C)c1ccc(C(=O)NO)cc1 (stereo not drawn)", "pIC50": "6.30 to 7.00"}
{"compound": "CC(NC(=O)c1ccc(Cl)cc1)c1ccc(C(=O)NO)cc1 (stereo not drawn)", "pIC50": "> 7.00"}

Reported pIC50 for CCS(=O)(=O)NC(C)c1ccc(C(=O)NO)cc1 (stereo not drawn) was 6.30 to 7.00

Reported pIC50 for `C[C@@H](NC(=O)c1ccc(-c2ccccc2)cc1)c1cccc(C(=O)NO)c1` was 6.30 to 7.00

Reported pIC50 for CC(NC(=O)c1ccc(C(C)(C)C)cc1)c1ccc(C(=O)NO)cc1 (stereo not drawn) was > 7.00

Reported pIC50 for Cc1ccc(NC(=O)NC(C)c2ccc(C(=O)NO)cc2)cc1F (stereo not drawn) was > 7.00

* * *

Target: purified human HDAC6 (Homo sapiens, UniProt Q9UBN7)
Construct: purchased BPS Bioscience 5006
Sequence (Q9UBN7 1-1215): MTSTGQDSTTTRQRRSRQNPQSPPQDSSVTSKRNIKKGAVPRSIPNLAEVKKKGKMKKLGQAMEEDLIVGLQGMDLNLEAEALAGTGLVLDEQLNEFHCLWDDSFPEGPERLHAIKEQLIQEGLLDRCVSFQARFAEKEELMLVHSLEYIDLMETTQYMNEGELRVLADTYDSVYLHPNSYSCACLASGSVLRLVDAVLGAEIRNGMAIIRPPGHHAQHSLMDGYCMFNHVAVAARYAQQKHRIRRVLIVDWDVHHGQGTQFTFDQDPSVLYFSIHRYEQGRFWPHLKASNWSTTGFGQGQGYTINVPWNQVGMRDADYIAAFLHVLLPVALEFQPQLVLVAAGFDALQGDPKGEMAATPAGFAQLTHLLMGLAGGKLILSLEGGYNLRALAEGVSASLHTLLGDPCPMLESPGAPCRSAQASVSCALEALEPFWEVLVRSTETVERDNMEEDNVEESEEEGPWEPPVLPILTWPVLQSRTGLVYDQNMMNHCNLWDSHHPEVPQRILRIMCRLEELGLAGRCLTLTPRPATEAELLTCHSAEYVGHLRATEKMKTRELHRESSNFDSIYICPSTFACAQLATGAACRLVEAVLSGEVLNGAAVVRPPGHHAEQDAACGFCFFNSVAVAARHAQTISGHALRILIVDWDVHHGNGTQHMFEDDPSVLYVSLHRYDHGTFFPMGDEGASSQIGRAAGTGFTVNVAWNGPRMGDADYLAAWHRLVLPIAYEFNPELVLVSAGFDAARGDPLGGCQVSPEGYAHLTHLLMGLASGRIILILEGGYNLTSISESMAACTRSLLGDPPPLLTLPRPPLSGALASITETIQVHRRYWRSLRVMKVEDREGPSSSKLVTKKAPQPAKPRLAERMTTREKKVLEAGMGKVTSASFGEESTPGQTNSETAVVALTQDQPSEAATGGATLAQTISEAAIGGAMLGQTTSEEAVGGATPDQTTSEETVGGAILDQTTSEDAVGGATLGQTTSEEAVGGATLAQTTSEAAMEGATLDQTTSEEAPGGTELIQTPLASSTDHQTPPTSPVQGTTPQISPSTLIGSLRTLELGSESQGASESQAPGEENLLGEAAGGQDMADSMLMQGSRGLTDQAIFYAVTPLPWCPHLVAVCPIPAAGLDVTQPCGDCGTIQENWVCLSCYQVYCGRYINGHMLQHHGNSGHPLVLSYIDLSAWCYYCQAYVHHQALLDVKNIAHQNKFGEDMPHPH
Assay: HDAC6 Enzyme Assay
Type: biochemical
Settings: purified human HDAC6, substrate Ac-Arg-Gly-Lys(Ac)-AMC, 1 hour at 30° C.; reported as bins
Each entry below carries its recorded IC50.

Examples with their reported IC50 follow.
{"compound": "Cc1c(C(=O)N[C@H](C)c2ccc(C(=O)NO)cc2)oc2ccccc12 [Compound I-237]", "IC50": "< 100 nM"}
{"compound": "CC(C)Oc1ccc(C(=O)NC(C)c2ccc(C(=O)NO)cc2)cc1 (stereo not shown) [Compound I-38]", "IC50": "< 100 nM"}
{"compound": "CC(NC(=O)c1c2c(nn1C)CCCC2)c1ccc(C(=O)NO)cc1 (stereo not shown) [Compound I-114]", "IC50": "100 to 500 nM"}

Reported IC50 for CC(NC(=O)Nc1ccc2c(c1)OCO2)c1ccc(C(=O)NO)cc1 (stereo not shown) [Compound I-71] was < 100 nM

Reported IC50 for COc1cc(C(=O)NO)ccc1C(C)NC(=O)c1cc2ccccc2s1 (stereo not shown) [Compound I-480] was 100 to 500 nM

Reported IC50 for C[C@@H](NC(=O)c1cc2ccccc2s1)c1ccc(C(=O)NO)cc1 [Compound I-184] was < 100 nM

Reported IC50 for C[C@@H](NC(=O)C(C)(C)C)c1ccc(C(=O)NO)cc1 [Compound I-73] was < 100 nM

Reported IC50 for Cc1cc(C)cc(NC(=O)NC(C)c2ccc(C(=O)NO)cc2)c1 (stereo not shown) [Compound I-397] was < 100 nM

Reported IC50 for CC(NC(=O)C1C(C)(C)C1(C)C)c1ccc(C(=O)NO)cc1 (stereo not shown) [Compound I-372] was 100 to 500 nM

Reported IC50 for Cc1ccc(S(=O)(=O)NC(C)c2ccc(C(=O)NO)cc2)c(C)c1 (stereo not shown) [Compound I-78] was 100 to 500 nM

Reported IC50 for CCC[C@@H](NC(=O)c1oc2ccccc2c1C)c1ccc(C(=O)NO)cc1 [Compound I-367] was < 100 nM

Reported IC50 for CC(C)C(NC(=O)c1cc(C(C)(C)C)nn1Cc1ccccc1)c1ccc(C(=O)NO)cc1 (stereo not shown) [Compound I-77] was 100 to 500 nM

Reported IC50 for C[C@@H](NC(=O)c1cc2ccccc2o1)c1ccc(C(=O)NO)cc1 [Compound I-317] was < 100 nM

Reported IC50 for CC(NC(=O)c1ccc2ccccc2c1)c1ccc(C(=O)NO)cc1 (stereo not shown) [Compound I-327] was < 100 nM

Reported IC50 for CC(C)C(NC(=O)c1ccc2nsnc2c1)c1ccc(C(=O)NO)cc1 (stereo not shown) [Compound I-135] was < 100 nM

Reported IC50 for CC(NS(=O)(=O)c1ccc(Cl)cc1)c1ccc(C(=O)NO)cc1 (stereo not shown) [Compound I-302] was 100 to 500 nM

Reported IC50 for CC(C)C(NC(=O)c1ccc(-c2ccccc2)[nH]c1=O)c1ccc(C(=O)NO)cc1 (stereo not shown) [Compound I-375] was < 100 nM

Reported IC50 for CC(C)C(NC(=O)C1CCCC1)c1ccc(C(=O)NO)cc1 (stereo not shown) [Compound I-255] was 100 to 500 nM

Reported IC50 for CC(NC(=O)Nc1ccc(Oc2ccccc2)cc1)c1ccc(C(=O)NO)cc1 (stereo not shown) [Compound I-20] was 100 to 500 nM
